- assay info: Intrinsic clearance in Sprague-Dawley rat liver microsomes at 1 to 5 uM by HPLC-MS analysis
- Type: ADME, Microsome
- condition details: read-out: CLH
observed property: CLint scaled at up to 5 µM (mL/min/kg)
// return numeric value only (unit: mL/min/kg, not printed)

// below: answered compounds
compound	CLint scaled at up to 5 µM / mL/min/kg
CCOc1ccccc1OCCNCCCCN1C(=O)C2CCCN2C1=O.Cl (stereo not given)	107
Cl.O=C1C2CCCN2C(=O)N1CCCCNCCOc1cccc2ccccc12 (stereo not given)	171
CCc1ccccc1OCCNCCCCN1C(=O)C2CCCN2C1=O.Cl (stereo not given)	131
Cl.O=C1C2CCCN2C(=O)N1CCCCNCCOc1ccccc1 (stereo not given)	140

Prompt: Param item = COc1ccccc1OCCNCCCCN1C(=O)C2CCCN2C1=O.Cl (stereo not given) ; retrieve measured CLint scaled at up to 5 µM.
Response: 145

Entry source: ChEMBL document CHEMBL2429786
